Reference source: the supplement of paper PMC11208160

Overview of reported recombinant UMI read abundance (log10) across a group of sequences:
- test-protocol: recombinant UMI read abundance after kanamycin selection (control-corrected) (log10(CPM+1)); higher = more efficient recombination; extreme values may be limits of the assay; sequences stand for … in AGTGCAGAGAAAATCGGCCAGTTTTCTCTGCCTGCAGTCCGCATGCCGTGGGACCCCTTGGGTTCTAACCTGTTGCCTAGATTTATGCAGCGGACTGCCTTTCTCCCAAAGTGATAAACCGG…AGGTTGGTTTCACT; site = the 11-nt donor
property-name: recombinant UMI read abundance (log10)

>>> measurement("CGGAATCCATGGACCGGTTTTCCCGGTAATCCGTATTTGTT (site CCAAATCCTAA)")
0
>>> measurement("CAGAATACATGGACCGGTTTTCCCGGTAATCCGTATTTGTT (site CAGAATACTAA)")
2.12
>>> measurement("CAAGGGCCATGGACCGGTTTTCCCGGTAATCCGTATTTGTG (site CAAGTGCCTCA)")
0.115
>>> measurement("ATTGCGACATGGACCGGTTTTCCCGGTAATCCGTATTTGGT (site ATTGCGACTAC)")
0.639
>>> measurement("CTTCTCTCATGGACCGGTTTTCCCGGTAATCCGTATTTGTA (site ATTCTCTCTTA)")
0.402

----------
- test-protocol: recombinant barcode read abundance after kanamycin selection (control-corrected) (log10(CPM+1)); higher = more efficient recombination; sequences stand for … in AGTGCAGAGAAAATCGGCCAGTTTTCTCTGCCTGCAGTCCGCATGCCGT…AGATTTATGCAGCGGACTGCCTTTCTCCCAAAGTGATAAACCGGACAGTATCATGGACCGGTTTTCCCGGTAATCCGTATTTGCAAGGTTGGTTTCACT; site = the 11-nt target
property-name: recombinant barcode read abundance (log10)

>>> measurement("GGTGCGTCTTGGGTTCTAACCTGTTGCCT (site GGTGCGTCTAG)")
1.57
>>> measurement("ACTAGGACTTGGGTTCTAACCTGTTGCGT (site ACTAGGACTGC)")
0.248
>>> measurement("GAGGGTCCTTGGGTTCTAACCTGTTGCAT (site GAGGGTCCTAA)")
0.573
>>> measurement("ACTACTACTTGGGTTCTAACCTGTTGCCT (site ATTACTACTAG)")
0.111
>>> measurement("TCGAAGGCTTGGGTTCTAACCTGTTGCCT (site TCTAAGGCTAG)")
0.0236
>>> measurement("TGTCGACCTTGGGTTCTAACCTGTTGCCT (site CGTCGACCTAG)")
0.113
>>> measurement("TAGGTGCCTTGGGTTCTAACCTGTTGCAT (site TAGGTGCCTAT)")
1.79
>>> measurement("CTATTGTCTTGGGTTCTAACCTGTTGCGC (site CTATTGTCTGC)")
2.77
>>> measurement("CACGAGTCTTGGGTTCTAACCTGTTGCCT (site CACGAGACTAG)")
0.0562
>>> measurement("ACGTAACCTTGGGTTCTAACCTGTTGCCT (site ACGTAACCTAG)")
0.0547
>>> measurement("GATACGTCTTGGGTTCTAACCTGTTGCCT (site GATACGACTAG)")
0.352
>>> measurement("CTAGGCCCTTGGGTTCTAACCTGTTGCTT (site CTAGGCCCTAC)")
0.18
>>> measurement("GACTGGTCTTGGGTTCTAACCTGTTGCCT (site GACTGGTCTAT)")
0.364
>>> measurement("GAGCTACCTTGGGTTCTAACCTGTTGCCC (site GAGCTACCTTG)")
0.85
>>> measurement("TAGAAGACTTGGGTTCTAACCTGTTGCTG (site TAGAAGACTGA)")
0.315
>>> measurement("TACTATGCTTGGGTTCTAACCTGTTGCGA (site TCCTATTCTTC)")
0
>>> measurement("TCGACGCCTTGGGTTCTAACCTGTTGCTT (site ACGACGTCTAA)")
0.0317
>>> measurement("GTGAGTCCTTGGGTTCTAACCTGTTGCGG (site GTAAGTCCTTC)")
0.24
>>> measurement("CTAAATACTTGGGTTCTAACCTGTTGCCG (site CTAAGCACTCG)")
0.188
>>> measurement("AGTCATACTTGGGTTCTAACCTGTTGCAT (site AGTCATCCTAG)")
0.0486
>>> measurement("AGGCATCCTTGGGTTCTAACCTGTTGCCT (site AGGCATCCTAG)")
0.147

----------
- test-protocol: recombinant barcode read abundance after kanamycin selection (control-corrected) (log10(CPM+1)); higher = more efficient recombination; sequences stand for … in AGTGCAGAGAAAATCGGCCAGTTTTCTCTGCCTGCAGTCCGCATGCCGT…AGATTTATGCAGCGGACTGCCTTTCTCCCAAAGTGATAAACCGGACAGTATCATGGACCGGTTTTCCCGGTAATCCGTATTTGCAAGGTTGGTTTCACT; site = the 11-nt target
// values below are reported recombinant barcode read abundance (log10)
property-name: recombinant barcode read abundance (log10)

>>> measurement("GGAGTTGCTTGGGTTCTAACCTGTTGCCT (site GGAGATTCTAG)")
0.273
>>> measurement("GTGTGTACTTGGGTTCTAACCTGTTGCCA (site GAGTGAACTTG)")
0.0252
>>> measurement("GATTAGACTTGGGTTCTAACCTGTTGCCT (site GATTAGACTAG)")
1.09
>>> measurement("GAAGAGCCTTGGGTTCTAACCTGTTGCCT (site GAAGTGCCTAG)")
0.0759
>>> measurement("CCGATCACTTGGGTTCTAACCTGTTGCCT (site CGTATCACTAG)")
0.034
>>> measurement("CATAGATCTTGGGTTCTAACCTGTTGCTT (site CAAAGATCTAA)")
0.271
>>> measurement("TTGAGTCCTTGGGTTCTAACCTGTTGCCT (site TTGAGTCCTAG)")
1.04
>>> measurement("CCTTAGTCTTGGGTTCTAACCTGTTGCAG (site ACATAGTCTCT)")
0.169
>>> measurement("CTAAGTCCTTGGGTTCTAACCTGTTGCAT (site CTAAATCCTAT)")
0.809
>>> measurement("TTAGTTCCTTGGGTTCTAACCTGTTGCCT (site TTAGTCCCTAG)")
0.186

----------
- test-protocol: recombinant UMI read abundance after kanamycin selection (control-corrected) (log10(CPM+1)); higher = more efficient recombination; extreme values may be limits of the assay; sequences stand for … in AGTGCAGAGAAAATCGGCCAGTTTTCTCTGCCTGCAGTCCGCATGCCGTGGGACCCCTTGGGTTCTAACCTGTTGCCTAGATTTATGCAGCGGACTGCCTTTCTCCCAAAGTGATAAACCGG…AGGTTGGTTTCACT; site = the 11-nt donor
Please enter yes where recombinant UMI read abundance (log10) is greater than or equal to 0.5, and no where it is lower.

>>> assigned_category("CGTTGGGCATGGACCGGTTTTCCCGGTAATCCGTATTTGCT (site CGTTCGGCTAG)")
"no"
>>> assigned_category("CCCGTCTCATGGACCGGTTTTCCCGGTAATCCGTATTTGGG (site CCCGTCTCTCC)")
"no"
>>> assigned_category("GGCACGCCATGGACCGGTTTTCCCGGTAATCCGTATTTGTA (site GGCACGCCTTA)")
"yes"
>>> assigned_category("CCCTATCCATGGACCGGTTTTCCCGGTAATCCGTATTTGAC (site CCCTATCCTGT)")
"no"
>>> assigned_category("AATTATGCATGGACCGGTTTTCCCGGTAATCCGTATTTGGT (site AATTATGCTAC)")
"yes"
>>> assigned_category("CGATCATCATGGACCGGTTTTCCCGGTAATCCGTATTTGTT (site CGATCATCTAT)")
"no"
>>> assigned_category("GAGCTCGCATGGACCGGTTTTCCCGGTAATCCGTATTTGAT (site GAGCTCCCTAT)")
"yes"
>>> assigned_category("AAAGTAACATGGACCGGTTTTCCCGGTAATCCGTATTTGCT (site AAAGTAACTAG)")
"yes"
>>> assigned_category("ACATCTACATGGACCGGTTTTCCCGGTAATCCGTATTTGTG (site ACATCTACTCG)")
"no"

----------
- test-protocol: recombinant barcode read abundance after kanamycin selection (control-corrected) (log10(CPM+1)); higher = more efficient recombination; sequences stand for … in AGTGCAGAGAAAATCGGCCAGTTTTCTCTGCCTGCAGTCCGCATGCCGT…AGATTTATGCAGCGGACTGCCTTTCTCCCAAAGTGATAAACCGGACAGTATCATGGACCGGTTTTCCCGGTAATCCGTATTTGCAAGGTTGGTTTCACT; site = the 11-nt target
Entries annotated with measured recombinant barcode read abundance (log10)
property-name: recombinant barcode read abundance (log10)

>>> measurement("ACACACCCTTGGGTTCTAACCTGTTGCGG (site ACGCACGCTCC)")
0.0353
>>> measurement("CGCTCGTCTTGGGTTCTAACCTGTTGCCT (site CGCTAGTCTAG)")
0.0163
>>> measurement("GGGAACCCTTGGGTTCTAACCTGTTGCAT (site GGGAACCCTAT)")
1.96
>>> measurement("TGTAGGACTTGGGTTCTAACCTGTTGCCT (site AGTAGGACTAG)")
0.0549
>>> measurement("TAGGCTCCTTGGGTTCTAACCTGTTGCAT (site TAGGCTCCTAT)")
1.19
>>> measurement("GGGTCGGCTTGGGTTCTAACCTGTTGCGG (site GGGTCGGCTCC)")
2.44
>>> measurement("GTGGTACCTTGGGTTCTAACCTGTTGCCT (site GTGGTAGCTAG)")
0.0565
>>> measurement("CTAGGCCCTTGGGTTCTAACCTGTTGCCT (site CTAGGCCCTAA)")
0.584
>>> measurement("TGGTTCGCTTGGGTTCTAACCTGTTGCCT (site TGGTCCGCTAG)")
0.0365
>>> measurement("TCCTGTACTTGGGTTCTAACCTGTTGCAT (site TCCGGTACTAT)")
0.00868
>>> measurement("CAGGGGCCTTGGGTTCTAACCTGTTGCCT (site CAGGGGCCTAG)")
1.97
>>> measurement("TTAACTACTTGGGTTCTAACCTGTTGCTG (site TTAACTACTAA)")
0.0189
>>> measurement("GGAGGGACTTGGGTTCTAACCTGTTGCCT (site GGAGGGACTAG)")
2.69
>>> measurement("ATTGAGACTTGGGTTCTAACCTGTTGCTT (site GAGAGTCCTTG)")
0.0837
>>> measurement("CTCCGAACTTGGGTTCTAACCTGTTGCAG (site TCATATCCTAG)")
0.174
>>> measurement("TTCTAGTCTTGGGTTCTAACCTGTTGCTA (site TTCTAGTCTTA)")
0.416
>>> measurement("TAATTGCCTTGGGTTCTAACCTGTTGCCT (site TAGTTGCCTAG)")
0.474
>>> measurement("CACACAGCTTGGGTTCTAACCTGTTGCCT (site CACACAGCTAG)")
0.559
>>> measurement("TAGTACTCTTGGGTTCTAACCTGTTGCTA (site TAGTACTCTAA)")
0.0398
>>> measurement("TCTTGGACTTGGGTTCTAACCTGTTGCTT (site TCTTGGACTAA)")
0.421
>>> measurement("TTCCTATCTTGGGTTCTAACCTGTTGCCT (site TCCCTATCTAG)")
0.071
